Biological target: HLA-A*68:01
Experiment: IEDB peptide-MHC binding, purified MHC/competitive/radioactivity; filed as Kd, often an IC50 or EC50 that approximates it; bounds were set here for any values at or beyond the usual limits of such assays
Conditions: source organism: Dengue virus 2 16681-PDK53
property label: Kd (nM)
Numbers only here, please. The scale is nM.

State the recorded Kd for this entry: `DVFFIPPEK`
3.62

====

Target: HLA-B*35:01
Experiment: IEDB peptide-MHC binding, purified MHC/competitive/radioactivity; filed as Kd, often an IC50 or EC50 that approximates it; bounds were set here for any values at or beyond the usual limits of such assays
Details: source organism: Vaccinia virus WR
property label: Kd (nM)
State the answer as a number, implicitly in nM.

Record request: Kd value, item `RPEMQEFEY`
8.09

Likewise for `IPGDILSII` ?
266

Same question, `LPYVGDTSMM` this time
816

Please answer likewise for `EPLSPDTCLL`
281

====

Molecular target: HLA-A*69:01
Assay: IEDB peptide-MHC binding, purified MHC/competitive/fluorescence; filed as Kd, often an IC50 or EC50 that approximates it; bounds were set here for any values at or beyond the usual limits of such assays
Details: source organism: Influenza A virus (A/swine/Italy/1513-1/1998(H1N1))
property label: Kd

Look up Kd for this sequence: `MMWEINGPK`
≥ 20 µM

====

Target: HLA-B*15:01
Assay: IEDB peptide-MHC binding, purified MHC/direct/fluorescence; filed as Kd, often an IC50 or EC50 that approximates it; bounds were set here for any values at or beyond the usual limits of such assays
Conditions: source organism: Coxiella burnetii
pKd: −log10 of the molar value.
property label: pKd

What does the data say about its pKd? Entry: `EEMPLVWDL`
≤ 4.70

====

Target: HLA-B*08:01
Assay: IEDB peptide-MHC binding, purified MHC/direct/fluorescence; filed as Kd, often an IC50 or EC50 that approximates it; bounds were set here for any values at or beyond the usual limits of such assays
Conditions: source organism: Yersinia pestis CA88-4125
property label: Kd (nM)
Response body: numeric value in nM, unit text excluded.

// lookup Kd | system=HLA-B*08:01 | key= `QLKSRAAVL`
34

====

Molecular target: HLA-B*15:01
Assay: IEDB peptide-MHC binding, purified MHC/direct/fluorescence; filed as Kd, often an IC50 or EC50 that approximates it; bounds were set here for any values at or beyond the usual limits of such assays
Settings: source organism: Brucella abortus
property label: Kd (nM)
Give your result in nM as a bare value.

// query Kd value for entry `GLAEKPNDY`
947

====

Target: HLA-A*26:02
Test: IEDB peptide-MHC binding, purified MHC/direct/fluorescence; filed as Kd, often an IC50 or EC50 that approximates it; bounds were set here for any values at or beyond the usual limits of such assays
Conditions: source organism: Variola virus
pKd: −log10 of the molar value.
property label: pKd

Which pKd value belongs to `LLLLISLVY` ?
≤ 4.70

Input `SLYKYLLLR`
≤ 4.70

====

Target: HLA-C*07:02
Assay: IEDB peptide-MHC binding, purified MHC/direct/fluorescence; filed as Kd, often an IC50 or EC50 that approximates it; bounds were set here for any values at or beyond the usual limits of such assays
Details: source organism: Campylobacter jejuni
property label: Kd (nM)
# number only, unit nM dropped from output

Look up Kd for this sequence: `LYSRSFWFF`
206

====

Molecular target: HLA-B*07:02
Assay: IEDB peptide-MHC binding, purified MHC/direct/fluorescence; filed as Kd, often an IC50 or EC50 that approximates it; bounds were set here for any values at or beyond the usual limits of such assays
Settings: source organism: Marburg virus - Musoke, Kenya, 1980
property label: Kd

Please report the recorded Kd for `AEILSGRVI` .
≥ 20 µM

Here is the next sequence: `QVGIFLICK`
≥ 20 µM

====

Target: HLA-B*35:01
Test: IEDB peptide-MHC binding, purified MHC/competitive/radioactivity; filed as Kd, often an IC50 or EC50 that approximates it; bounds were set here for any values at or beyond the usual limits of such assays
Details: source organism: Lymphocytic choriomeningitis virus (strain Armstrong)
property label: pKd
Value format note: pKd is -log10 of concentration (mol/L); just state the number.

// query pKd value for entry `HPIMYYTKF`
7.75

Also check `MPEWANFKF`
8.03

====

Target: HLA-A*01:01
Experiment: IEDB peptide-MHC binding, purified MHC/direct/fluorescence; filed as Kd, often an IC50 or EC50 that approximates it; bounds were set here for any values at or beyond the usual limits of such assays
Details: source organism: Escherichia coli
property label: Kd

Entry `LAAPCRNAL` has what Kd?
≥ 20 µM

====

Molecular target: HLA-A*02:01
Assay: IEDB peptide-MHC binding, purified MHC/direct/fluorescence; filed as Kd, often an IC50 or EC50 that approximates it; bounds were set here for any values at or beyond the usual limits of such assays
Conditions: source organism: Vibrio vulnificus CMCP6
property label: Kd

Write down the reported Kd of `EMSLADYLY` , test system: HLA-A*02:01.
≥ 20 µM

====

Biological target: HLA-C*04:01
Assay: IEDB peptide-MHC binding, purified MHC/direct/fluorescence; filed as Kd, often an IC50 or EC50 that approximates it; bounds were set here for any values at or beyond the usual limits of such assays
Conditions: source organism: Campylobacter jejuni
pKd: −log10 of the molar value.
property label: pKd

Requested field: pKd. Item: `LYSRSFWFF`
≤ 4.70

====

Molecular target: HLA-B*08:01
Assay: IEDB peptide-MHC binding, purified MHC/direct/fluorescence; filed as Kd, often an IC50 or EC50 that approximates it; bounds were set here for any values at or beyond the usual limits of such assays
Settings: source organism: Vibrio parahaemolyticus RIMD 2210633
property label: Kd
Express the reported value numerically, then name its unit.

Request body: readout Kd, system HLA-B*08:01, query `DMRKRIEAF` . Return the value.
13 nM

====

Molecular target: HLA-B*18:01
Test: IEDB peptide-MHC binding, purified MHC/direct/fluorescence; filed as Kd, often an IC50 or EC50 that approximates it; bounds were set here for any values at or beyond the usual limits of such assays
Settings: source organism: Camelpox virus M-96
pKd: −log10 of the molar value.
property label: pKd

Return reported pKd; argument: `SLYKYLLLR`
≤ 4.70

====

Biological target: HLA-A*23:01
Experiment: IEDB peptide-MHC binding, purified MHC/competitive/fluorescence; filed as Kd, often an IC50 or EC50 that approximates it; bounds were set here for any values at or beyond the usual limits of such assays
Conditions: source organism: Cryptosporidium parvum Iowa II
pKd: −log10 of the molar value.
property label: pKd

Consider the sequence shown here: `RLKHIFLIF` What is its recorded pKd?
≤ 4.70

====

Target: HLA-A*03:01
Test: IEDB peptide-MHC binding, purified MHC/competitive/radioactivity; filed as Kd, often an IC50 or EC50 that approximates it; bounds were set here for any values at or beyond the usual limits of such assays
Conditions: source organism: Dengue virus 3 Singapore/8120/1995
property label: pKd
Please keep in mind that pKd is minus log10 of the molar concentration; only the number is needed.

Given the sequence `KVVQHENLK` , what is its reported pKd?
7.31

====

Target: HLA-B*15:01
Experiment: IEDB peptide-MHC binding, purified MHC/competitive/fluorescence; filed as Kd, often an IC50 or EC50 that approximates it; bounds were set here for any values at or beyond the usual limits of such assays
Settings: source organism: Entamoeba dispar SAW760
property label: Kd

// query Kd value for entry `KGFFRVFKK`
≥ 20 µM

====

Biological target: HLA-A*03:01
Assay: IEDB peptide-MHC binding, purified MHC/direct/fluorescence; filed as Kd, often an IC50 or EC50 that approximates it; bounds were set here for any values at or beyond the usual limits of such assays
Details: source organism: Escherichia coli
property label: Kd

Would you kindly share the measured Kd for `RRNNRVFFR` ?
≥ 20 µM

Same again, this time with `ALMRWRHPR`
0.0994 µM

Quick one: `LAAPCRNAL`
≥ 20 µM

====

Molecular target: HLA-B*57:01
Assay: IEDB peptide-MHC binding, purified MHC/competitive/fluorescence; filed as Kd, often an IC50 or EC50 that approximates it; bounds were set here for any values at or beyond the usual limits of such assays
Conditions: source organism: Lechiguanas virus
pKd: −log10 of the molar value.
property label: pKd

Suppose we examine the sequence `LQPSDTLLF` ; what pKd value has been reported?
≤ 4.70

====

For each entry below, report its IC50 value.
Target: HLA-A*11:01
Assay: IEDB peptide-MHC binding, purified MHC/competitive/fluorescence; bounds were set here for any values at or beyond the usual limits of such assays
Conditions: source organism: Vaccinia virus Copenhagen
Give your result in µM as a bare value.

Form field: reported IC50 of `KLNGAMVEY`
7.97

Now the sequence `KTFKDESIF`
61
